MEASURED_ON: Met kinase domain (GST fusion protein) (Homo sapiens, UniProt P08581)
Construct: Purified GST fusion protein containing the Met kinase domain
Sequence (P08581 1078-1345 limits assumed): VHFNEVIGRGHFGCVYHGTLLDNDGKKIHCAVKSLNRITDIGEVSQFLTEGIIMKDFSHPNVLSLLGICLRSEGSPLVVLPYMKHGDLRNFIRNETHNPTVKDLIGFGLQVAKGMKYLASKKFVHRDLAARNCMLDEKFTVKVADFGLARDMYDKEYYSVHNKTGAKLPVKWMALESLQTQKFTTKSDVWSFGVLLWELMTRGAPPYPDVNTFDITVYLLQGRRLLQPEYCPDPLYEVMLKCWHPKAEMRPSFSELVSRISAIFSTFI
TEST_NAME: Met transphosphorylation assay (ELISA, poly(glu-tyr) substrate);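 further: Cell-free ELISA with plate-bound poly(Glu:Tyr 4:1) phosphorylated by GST-fused Met kinase domain plus ATP and Mn2+, phosphotyrosine detected by anti-phosphotyrosine antibody with HRP and ABTS read-out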
Type: biochemical
MEASUREMENT_CONTEXT: read-out: Met IC50
pIC50: −log10 of the molar value.
A collection of compounds and their measured pIC50
ASSAY_METRIC: pIC50

compound=Nc1ncc(-c2cccc(NS(=O)(=O)CCN3CCCC3)c2)nc1OCc1c(F)ccc(F)c1Cl reported_measurement=5.74
compound=Nc1ncc(-c2cccc(C(=O)N3CC[C@@H](N)C3)c2)nc1OCc1c(F)ccc(F)c1Cl reported_measurement=5.99
compound=Nc1ncc(-c2ccc(C(=O)NCCCN3CCOCC3)cc2)cc1OCc1c(F)cccc1Cl reported_measurement=5.25
compound="Nc1ncc(-c2ccc(C(=O)NCC(O)CN3CCCC3)cc2)cc1OCc1c(Cl)cccc1Cl (centres unmarked)" reported_measurement=6.70
compound=Nc1ncc(-c2cccc(NS(=O)(=O)CCN3CC[C@@H](O)C3)c2)nc1OCc1c(F)ccc(F)c1Cl reported_measurement=5.67
compound=Nc1ncc(-c2cccc(NS(=O)(=O)CCN3CCC(O)CC3)c2)nc1OCc1c(F)ccc(F)c1Cl reported_measurement=6.15
compound="CC(C)C(Oc1nc(Br)cnc1N)c1c(F)ccc(F)c1Cl (centres unmarked)" reported_measurement=4.74
compound="CC(Oc1nc(-c2ccc(NS(=O)(=O)CCN3CCC(O)CC3)cc2)cnc1N)c1c(Cl)ccc(F)c1Cl (centres unmarked)" reported_measurement=6.68
